Recorded IC50 values for a group of compounds are listed next.
tested on: Vero; test: Cytotoxicity against African green monkey Vero cells; format: cell-based; settings: Chlorocebus sabaeus

CCCOc1ccc(C(=O)Nc2ncc([N+](=O)[O-])s2)cc1Br    > 100 µM

For the next question, use this compound.
Task: Fill in: IC50 of "O=C(Nc1ncc([N+](=O)[O-])s1)c1ccc(Cl)cc1Cl" is ___
Output: > 100 µM
